- METHOD SUMMARY: qHTS Assay for inhibitors of the human cytomegalovirus (HCMV)
- EXPERIMENTAL CONTEXT: HFF cells, HCMV-luciferase reporter, 72 h; at 57.5 µM
In all, about 410,000 compounds went through this assay and about 18,000 (4.4%) were called active. About 7% were inconclusive and are not listed. Rule as the data show it: active = activity change below about -60%; inconclusive = no clear call, values can overlap the other calls; inactive = above about -39%. This is one part of a sample in which actives are shown more often than they occur.
Classes used: active, inactive

• C#CC(C)(CC)NC(=O)Cn1nnc(-c2ccc(OCc3c(F)cccc3Cl)cc2)n1 (configuration not stated) = inactive
• Fc1ccc(Nc2nnns2)cc1 = inactive
• Cc1ccc(N2CC(c3nnc(Cc4ccccc4Cl)o3)CC2=O)cc1 (configuration not stated) = inactive
• Cc1ccc2cc(CCNC(=O)c3c(-c4ccccc4Cl)noc3C)c(=O)[nH]c2c1 = active
• O=C(NCCc1ccc(C(F)(F)F)cc1)c1ccc2c(c1)OCO2 = inactive
• Cc1nc2sc3c(c2c(=O)n1NC(=O)CCl)CCCC3 = active
• COc1ccc(C)cc1S(=O)(=O)Nc1cc2c3c(c1)CCC(=O)N3CCC2 = inactive
• CCOc1ccc(CCNC(=O)Cn2nc(CC)n3c(cc4sc(CC)cc43)c2=O)cc1OCC = inactive
• Cc1onc(-c2ccccc2Cl)c1C(=O)N(Cc1ccc(N(C)C)cc1)C(C)C = inactive
• NC(=O)c1ncc(C(F)(F)F)cc1Oc1ccc(F)cc1 = inactive
• O=C(c1ccccc1)N1CC(=O)N2[C@@H](CO)[C@@H](c3ccc(Br)cc3)[C@@H]2C1 = inactive
• CC1(C(=O)Nc2cccnc2)Cc2c(-c3ccccc3)ccnc2O1 (configuration not stated) = inactive
• COc1ccc(NC(=O)C2(C)Cc3c(-c4cccc(NC(C)=O)c4)ccnc3O2)cc1OC (configuration not stated) = inactive
• Cc1ccc2c(=O)cc(C(=O)Nc3sc4c(c3C(=O)NCc3cccnc3)CCCC4)oc2c1 = inactive
• COc1cccc(C(=O)NC2(C(F)(F)F)C(=O)Nc3c2c(=O)[nH]c(=O)n3-c2ccc(C)cc2)c1 (configuration not stated) = inactive
• Cc1nc(SCC(=O)Nc2ccc(C(=O)O)cc2)n[nH]1 = inactive
• CC(C)N(C(=O)Cn1c(SCC(=O)N2CCN(c3ccccc3)CC2)nc2ccccc21)C(C)C = inactive
• COc1nc(OC)nc(N(C)CCO)n1 = inactive
• CCOc1ccc(N2C(=O)CSC2=NC#N)cc1 = active
• Cc1ccc(-c2cc(-c3coc4ccccc4c3=O)c3c(n2)-c2cc(Cl)ccc2OC3)cc1 = inactive
• CN(C)CCCNC(=O)/C=C/c1ccc(OCc2c(F)cccc2Cl)cc1 = active
• CCOC(=O)c1cccc(NS(=O)(=O)c2cc(-c3cnc(C)o3)ccc2OC)c1 = inactive
• Cc1nc2sc(C)c(C)n2c(=O)c1S(=O)(=O)NCCc1ccc(Cl)cc1 = inactive
• CCOC(=O)C1Cn2c(nc3c(c2=O)C(C)(CC)Cc2ccccc2-3)S1 (configuration not stated) = inactive
• O=C(/C=C/c1ccccc1)Nc1cc(-c2nc3cc(Cl)ccc3o2)ccc1Cl = inactive
• Cc1cccc(-n2c(SCC(N)=O)nc3c(c2=O)C2(CCCCC2)Cc2ccccc2-3)c1 = active
• Cc1onc(-c2c(Cl)cccc2Cl)c1C(=O)c1c[nH]c(C(=O)NC2CC2)c1 = inactive
• Cc1ccc(C)c(-n2c(SCC(=O)O)nc3sc4c(c3c2=O)CCCC4)c1 = inactive
• COc1ccc(-c2cnc(SCCNC(=O)c3ccc4c(c3)OCO4)[nH]2)cc1 = inactive
• COc1ccccc1CC(NC(C)=O)C(=O)NC1CCN(C(=O)Nc2ccccc2Cl)CC1 (configuration not stated) = inactive
• O=C(NCC(F)(F)F)c1ccc(S(=O)(=O)NCCc2ccc3c(c2)OCCO3)cc1 = inactive
• CCO/C=C1\C(=O)N(c2ccc(OCC)cc2)C(=O)c2ccccc21 = inactive
• CC(C)CCN1CCN=C1N(C)C = inactive
• O=C(Nc1ccc2nc(SCC(=O)N3CCc4ccccc43)sc2c1)c1ccccc1F = inactive
• CCOC(=O)CNC(=O)/C=C/c1c(Cl)cccc1Cl = inactive
• CC(C)NC(=O)Nc1cccc2c1O[C@@H](CN(C)S(=O)(=O)c1ccc(F)cc1)[C@@H](C)CN([C@H](C)CO)C2=O = inactive
• Cc1ccc(CN(C(=O)c2ccccc2[N+](=O)[O-])c2ccccn2)cc1 = inactive
• Cc1ccc(C)c(N2CCN(C(=O)Cc3c(C(=O)O)c(C)cn3C)CC2)c1 = inactive
• O=C(Cn1ncc2c3ccccc3n(Cc3ccccc3)c2c1=O)NC1CCCCCC1 = inactive
• COc1ccc(NC(=O)Cn2c(=O)n(CCC(C)C)c(=O)c3cccnc32)cc1Cl = inactive
• Cc1ccc(C(=O)CSc2nc(-c3ccccc3)nc3c2CCCC3)c(C)c1 = inactive
• Cc1ccc2cc(CCNC(=O)c3ccc4c(c3)OCO4)c(=O)[nH]c2c1 = active
